Provenance of the data: patent US12357650B2

Assay: Pharmacokinetic profile of IUdR (100 mg/kg) with and without Tipiracil in rats following single oral administration
Format: in vivo, male Sprague-Dawley rats
Conditions: male, Sprague-Dawley, rat, plasma, oral, 100 mg/kg, PO-100 mg/kg Compound A alone or + 7.9 mg/kg Compound B, 0.5 hr, individual animals, LLOQ 10 ng/mL, read-out: Plasma Concentration of Compound A
parameter: concentration at 0.5 hr
Quick note: number first, unit second.

Given O=c1[nH]c(=O)n([C@H]2C[C@H](O)[C@@H](CO)O2)cc1I , state its recorded concentration at 0.5 hr.
627 ng/mL

###

Assay: Pharmacokinetic profile of IUdR (100 mg/kg) with and without Tipiracil in rats following single oral administration
Assay type: in vivo, male Sprague-Dawley rats
Conditions: male, Sprague-Dawley, rat, plasma, oral, 100 mg/kg, PO-100 mg/kg Compound A alone or + 7.9 mg/kg Compound B, 6 hr, individual animals, LLOQ 10 ng/mL, read-out: Plasma Concentration of Compound A
parameter: concentration at 6 hr (ng/mL)
Answers are plain numbers, in ng/mL.

For the compound shown here, O=c1[nH]c(=O)n([C@H]2C[C@H](O)[C@@H](CO)O2)cc1I , give the reported concentration at 6 hr.
54
